Reported normalized growth values are given for each entry in this list.
Protocol description: chemical genetic growth profiling, strain panel (AID 1159580);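 also: tested at 20 µM; growth read once vehicle control cultures reached saturation at 30 °C; 1 = growth at the plate median or of vehicle wells; lower values mean less growth of the strain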
Condition label: S. cerevisiae deletion strains, growth OD, locus YOL078W, strain AVO1, stronger effect = lower value
The campaign covered roughly 5,500 compounds. About 2,000 (36%) were called active. Another 18% or so got no clear call; they are omitted. The list shows a part of the results.
Please give only the number in your answer, with no unit.

Study these solved cases before continuing.
>  <Molecule>
Oc1c(Cl)cc(Cl)cc1C=Nc1ccc(Sc2ccccc2)nc1Sc1ccccc1

>  <normalized growth>
0.955

$$$$
>  <Molecule>
O=C1Nc2ccccc2/C1=C\c1ccc(Cl)cc1

>  <normalized growth>
0.951

$$$$
>  <Molecule>
CCNC(=S)N/N=C\c1cc(Cl)cc(Cl)c1O

>  <normalized growth>
0.916

$$$$
>  <Molecule>
COCCCNC(=S)N/N=C\c1cc(Br)ccc1O

>  <normalized growth>
0.964

$$$$
>  <Molecule>
Cc1nnc2n1N=C(c1ccc(CC(C)C)cc1)C(C)S2 (stereo not drawn)

>  <normalized growth>
0.977

$$$$
>  <Molecule>
O=C1Nc2ccccc2/C1=C/c1ccc(C(F)(F)F)cc1Cl

>  <normalized growth>
0.966

$$$$
>  <Molecule>
Oc1c(Br)cc(Br)cc1/C=N\n1cnnc1

>  <normalized growth>
0.926

$$$$
>  <Molecule>
OC(COc1ccc(F)cc1)(c1ccccc1)c1ccccc1

>  <normalized growth>
0.967

$$$$

Look up normalized growth of Cc1cc(Cl)ccc1NNC(=O)c1sccc1Br and report it.
0.916

Give a short answer stating reported normalized growth for O=[N+]([O-])c1cc(Cl)cc([N+](=O)[O-])c1Nc1ccccc1 .
0.922

Look up and report measured normalized growth for this entry: CN(C)C=Nc1nnc(Sc2nc3c(Cl)cc(Cl)cc3s2)s1
0.973

Return the recorded normalized growth value; entry: COc1cc(Br)cc(C=Nc2ccc(Sc3ccccc3)nc2Sc2ccccc2)c1O
0.963

Answer with reported normalized growth of Cc1c(C)c(C)c(C(O)c2ccccc2)c(C)c1C (stereo not drawn)
1

Source: PubChem BioAssay AID1159580
